# credit: PubChem BioAssay (NCI)

Test system: ACHN renal
assay.name: NCI tumour cell line growth inhibition, 48 h
parameter.measured: TGI

[
  {
    "structure.as.smiles": "CCN(CC)c1ccc(/C=N/N=C(N)N)cc1",
    "reported.value": "64.8 µM"
  },
  {
    "structure.as.smiles": "C/C(CC(O)(C(F)(F)F)C(F)(F)F)=N\\O",
    "reported.value": "> 10 µM"
  },
  {
    "structure.as.smiles": "CCCCS(=O)(=O)c1cc(Nc2ccc(O)c3c2C(=O)c2ccccc2C3=O)ccc1C",
    "reported.value": "> 100 µM"
  }
]

====

Quick reference for TGI among some molecules
Test system: MALME-3M melanoma
assay.name: NCI tumour cell line growth inhibition, 48 h
parameter.measured: TGI (µM)

[
  {
    "molecule": "CC(=O)c1c(-c2ccco2)c(C#N)c(=S)n(C2OC(CO)C(O)C(O)C2O)c1C (centres undefined)",
    "parameter.measured": "TGI",
    "units.label": "µM",
    "value.qualifier": ">",
    "reported.value": 100
  },
  {
    "molecule": "CC(NC1CCCC[C@@H]1O)c1ccccc1 (some centres undefined)",
    "parameter.measured": "TGI",
    "units.label": "µM",
    "value.qualifier": ">",
    "reported.value": 100
  },
  {
    "molecule": "O=C(CCC(NC(=O)OCc1ccccc1)C(=O)OCc1ccccc1)Nc1cccc(OCc2ccccc2)c1 (centres undefined)",
    "parameter.measured": "TGI",
    "units.label": "µM",
    "value.qualifier": "=",
    "reported.value": 56.4
  },
  {
    "molecule": "CCOC(=O)NN1C(=O)C(=P(c2ccccc2)(c2ccccc2)c2ccccc2)C(C(=O)OC)=C1C",
    "parameter.measured": "TGI",
    "units.label": "µM",
    "value.qualifier": ">",
    "reported.value": 100
  },
  {
    "molecule": "O=C(NCc1cn(Cc2cccc(Oc3ccccc3)c2)nn1)c1cccnc1NCc1ccc(Cl)cc1",
    "parameter.measured": "TGI",
    "units.label": "µM",
    "value.qualifier": ">",
    "reported.value": 100
  },
  {
    "molecule": "CCOC(=O)c1cnc2n(c1=O)[C@H]1CCCC[C@@H]1N2",
    "parameter.measured": "TGI",
    "units.label": "µM",
    "value.qualifier": ">",
    "reported.value": 100
  },
  {
    "molecule": "N.N.N.N.O=S([O-])[O-].[Co+3].[N-]=[N+]=[N-]",
    "parameter.measured": "TGI",
    "units.label": "µM",
    "value.qualifier": ">",
    "reported.value": 100
  },
  {
    "molecule": "C[C@@H]1C[C@@H]2OC(=O)[C@]3(C)[C@H]2[C@@H](OC3(C)O)[C@]2(C)C(=O)C=C[C@@H]12 (some centres undefined)",
    "parameter.measured": "TGI",
    "units.label": "µM",
    "value.qualifier": "=",
    "reported.value": 30.7
  },
  {
    "molecule": "O=C(O)C(Cc1ccccc1)N1C(=O)/C(=C/C(Cl)=C/c2ccc([N+](=O)[O-])cc2)SC1=S (centres undefined)",
    "parameter.measured": "TGI",
    "units.label": "µM",
    "value.qualifier": "=",
    "reported.value": 4.82
  },
  {
    "molecule": "C/C(=C\\c1ccccc1)C(=O)c1c(C)cc(C)cc1C",
    "parameter.measured": "TGI",
    "units.label": "µM",
    "value.qualifier": ">",
    "reported.value": 100
  },
  {
    "molecule": "CN(CCOc1ccc(NS(C)(=O)=O)cc1)CCc1ccc(NS(C)(=O)=O)cc1",
    "parameter.measured": "TGI",
    "units.label": "µM",
    "value.qualifier": ">",
    "reported.value": 100
  },
  {
    "molecule": "O=c1cc(-c2ccccc2)oc2cc(OCCCCCCCCCCOc3ccc4c(=O)cc(-c5ccccc5)oc4c3)ccc12",
    "parameter.measured": "TGI",
    "units.label": "µM",
    "value.qualifier": ">",
    "reported.value": 100
  },
  {
    "molecule": "CN(C)Cc1cc(/C=C/C(=O)c2ccc(Br)cc2)cc(CN(C)C)c1O",
    "parameter.measured": "TGI",
    "units.label": "µM",
    "value.qualifier": "=",
    "reported.value": 31.6
  },
  {
    "molecule": "C/C(=N\\Nc1nc2cc(F)ccc2s1)c1ccccn1",
    "parameter.measured": "TGI",
    "units.label": "µM",
    "value.qualifier": "=",
    "reported.value": 23
  },
  {
    "molecule": "CCN(CC)c1ccc(/C=N/N=C(N)N)cc1",
    "parameter.measured": "TGI",
    "units.label": "µM",
    "value.qualifier": "=",
    "reported.value": 18.7
  },
  {
    "molecule": "c1ccc(C2N=C(c3ccccn3)C(c3ccccn3)=NC2c2ccccc2)cc1 (centres undefined)",
    "parameter.measured": "TGI",
    "units.label": "µM",
    "value.qualifier": ">",
    "reported.value": 100
  },
  {
    "molecule": "N#C/C(=C/C=C/c1cccc(Cl)c1)S(=O)c1ccccc1 (centres undefined)",
    "parameter.measured": "TGI",
    "units.label": "µM",
    "value.qualifier": "=",
    "reported.value": 2.69
  },
  {
    "molecule": "Cc1nc(Nc2ccc(Cl)cc2)sc1C(=O)Nc1cccc2c(=O)[nH][nH]c(=O)c12",
    "parameter.measured": "TGI",
    "units.label": "µM",
    "value.qualifier": "=",
    "reported.value": 80.3
  },
  {
    "molecule": "CCCC(=O)Nc1cc(/C=C/C(=O)N2C[C@@H]3C[C@]34C2=CC(=O)c2[nH]cc(C)c24)n(C)c1",
    "parameter.measured": "TGI",
    "units.label": "µM",
    "value.qualifier": "=",
    "reported.value": 0.337
  },
  {
    "molecule": "Cc1cc(O)c2c(c1)OC1(C)CCC3C(C)(C)CCCC34COC2C14 (centres undefined)",
    "parameter.measured": "TGI",
    "units.label": "µM",
    "value.qualifier": "=",
    "reported.value": 26.3
  },
  {
    "molecule": "O=C1N=C2N=C(c3ccc(Cl)cc3)N(c3ccc(Cl)cc3)N2Sc2ccccc21",
    "parameter.measured": "TGI",
    "units.label": "µM",
    "value.qualifier": ">",
    "reported.value": 100
  },
  {
    "molecule": "Oc1c(NCn2nc(CCCCCCCCc3nn(CNc4ccc5ccccc5c4O)c(=S)o3)oc2=S)ccc2ccccc12",
    "parameter.measured": "TGI",
    "units.label": "µM",
    "value.qualifier": ">",
    "reported.value": 100
  },
  {
    "molecule": "O=C(O)CCN1C(=S)CSC1=S",
    "parameter.measured": "TGI",
    "units.label": "µM",
    "value.qualifier": ">",
    "reported.value": 100
  },
  {
    "molecule": "Cc1c2oc(=O)c(C#N)cc2c2ccccn12",
    "parameter.measured": "TGI",
    "units.label": "µM",
    "value.qualifier": ">",
    "reported.value": 100
  },
  {
    "molecule": "Cc1cc(NS(=O)(=O)c2ccc(Nc3c4ccccc4nc4c(C(=O)NC(CO)(CO)CO)cccc34)cc2)no1",
    "parameter.measured": "TGI",
    "units.label": "µM",
    "value.qualifier": "=",
    "reported.value": 92.2
  },
  {
    "molecule": "S=C(Nc1ccc(-c2nc3ccccc3s2)cc1)Nc1ccc(-c2nc3ccccc3s2)cc1",
    "parameter.measured": "TGI",
    "units.label": "µM",
    "value.qualifier": "=",
    "reported.value": 65.4
  },
  {
    "molecule": "C=C(CN1CCc2ccccc2C1)c1ccc(CCCC(=O)Nc2ccccc2N)cc1",
    "parameter.measured": "TGI",
    "units.label": "µM",
    "value.qualifier": "=",
    "reported.value": 25.7
  },
  {
    "molecule": "Nc1ccccc1SC(/C=C/NNC1=NC(c2ccccc2)C(c2ccccc2)=NN1)c1ccccc1 (centres undefined)",
    "parameter.measured": "TGI",
    "units.label": "µM",
    "value.qualifier": "=",
    "reported.value": 30.1
  },
  {
    "molecule": "CC1=NN(c2ccccc2)C(=O)/C1=C\\c1c(C)[nH]n(-c2ccccc2)c1=O",
    "parameter.measured": "TGI",
    "units.label": "µM",
    "value.qualifier": ">",
    "reported.value": 100
  }
]
